Origin of measurements: patent US5461044A

ASSAY OVERVIEW: Concentration in blood upon subcutaneous injection in mice (HPLC, serum)
Type: in vivo, mice of ICR strain
ASSAY CONTEXT: sc, male ICR mice, 0.5 mg per mouse, Gauss-Newton method
Protocol: Test compounds used are as follows: The test procedure used was as follows. […] Each blood sample as collected was post-treated in a usual manner and the concentration of the cephem compound in the serum was then quantitatively determined by the use of HPLC (High Performance Liquid Chromatography). A half-life value and AUC which were pharmacokinetic parameters were calculated by the Gauss-Newton method. […]
Below is a list of entries, each paired with its recorded half-life value.
State just the number; it will be interpreted in min.

• Nc1nc(/C(=N/OCC(=O)O)C(=O)NC2C(=O)N3C(C(=O)O)=C(Sc4nc5ccccc5s4)CSC23)cs1 (centres unmarked) = 55.2

Alright, here's another compound for you.
Ask: half-life for CO/N=C(\C(=O)NC1C(=O)N2C(C(=O)O)=C(Sc3nc4ccccc4s3)CS[C@H]12)c1csc(N)n1 (some centres unmarked) ?
Reply: 42
